Where do these numbers come from? They come from the supplement of paper PMC5908809.

# reported drug sensitivity score; entries follow
Test system: NK-92 (IL-2 2.5 ng/mL)
PROTOCOL_DETAILS: drug sensitivity score (DSS) (DSS units); higher = more sensitive; extreme values may be limits of the assay
CONDITION_LABEL: 72 h
Respond using a number only.

CCOc1cc2ncc(C#N)c(Nc3ccc(OCc4ccccn4)c(Cl)c3)c2cc1NC(=O)/C=C/CN(C)C [Neratinib] (max concentration tested 1000 nM) = 4.28
Cc1sc2c(c1C)C(c1ccc(Cl)cc1)=N[C@@H](CC(=O)Nc1ccc(O)cc1)c1nnc(C)n1-2 [OTX015] (max concentration tested 10000 nM) = 4.42
CC(C)C[C@@H](C(=O)N[C@H](C(=O)OC1CCCC1)c1ccccc1)[C@H](O)C(=O)NO [Tosedostat] (max concentration tested 10000 nM) = 5.36
O=C(/C=C\n1cnc(-c2cc(C(F)(F)F)cc(C(F)(F)F)c2)n1)NNc1cnccn1 [Selinexor] (max concentration tested 10000 nM) = 20.8

What measured drug sensitivity score goes with C[C@@H]1C[C@H]2O[C@@H]2/C=C\C=C\C(=O)Cc2c(Cl)c(O)cc(O)c2C(=O)O1 [Radicicol] (max concentration tested 10000 nM) ?
22.8

What measured drug sensitivity score goes with CN(C)c1cc2c(cc1Sc1nc3c(N)nccc3n1CCNCC(C)(C)C)OCO2 [CUDC-305] (max concentration tested 10000 nM) ?
20.4

What measured drug sensitivity score goes with O=C(Nc1ccncc1)C(=O)c1cn(Cc2ccc(Cl)cc2)c2ccccc12 [Indibulin] (max concentration tested 10000 nM) ?
24.3

What measured drug sensitivity score goes with CC1(C)CCC(CN2CCN(c3ccc(C(=O)NS(=O)(=O)c4ccc(NCC5CCOCC5)c([N+](=O)[O-])c4)c(Oc4cnc5[nH]ccc5c4)c3)CC2)=C(c2ccc(Cl)cc2)C1 [Venetoclax] (max concentration tested 10000 nM) ?
5.65

What measured drug sensitivity score goes with COc1cccc2c1C(=O)c1c(O)c3c(c(O)c1C2=O)C[C@@](O)(C(C)=O)C[C@@H]3O[C@H]1C[C@H](N)[C@H](O)[C@H](C)O1 [Daunorubicin] (max concentration tested 1000 nM) ?
16

###

Test system: normal NK cells expanded with K562-aAPC
PROTOCOL_DETAILS: drug sensitivity score (DSS) (DSS units); higher = more sensitive; extreme values may be limits of the assay
CONDITION_LABEL: 72 h; IL-2 2.5 ng/mL
# reported drug sensitivity score; entries follow

CCS(=O)(=O)N1CC(CC#N)(n2cc(-c3ncnc4[nH]ccc34)cn2)C1 [Baricitinib] (max concentration tested 2500 nM) = 20.2
O=C1NC(=O)/C(=C/c2ccc3nccc(-c4ccncc4)c3c2)S1 (max concentration tested 10000 nM) = 7.25
O=C(Nc1ccc2[nH]nc(-c3ccncc3)c2c1)[C@@H]1CCN(CC(=O)N2CCN(c3ccc(-c4ncccn4)cc3)CC2)C1 (max concentration tested 10000 nM) = 1.01
CCCOc1ccn2c(C(C)=O)cc(-c3ccccc3S(C)(=O)=O)c2c1 [GSK2801] (max concentration tested 10000 nM) = 0

What measured drug sensitivity score goes with O=C(O)c1ccc(Nc2ncc3c(n2)-c2ccc(Cl)cc2C(c2c(F)cccc2F)=NC3)cc1 [MLN-8054] (max concentration tested 10000 nM) ?
7.83

###

Tested on: normal NK cells expanded with K562-aAPC
PROTOCOL_DETAILS: percent inhibition of viability; higher = more inhibition
CONDITION_LABEL: 72 h; IL-2 2.5 ng/mL; 1 nM
# reported percent inhibition of viability; entries follow
Kindly answer with a numeric value in %, unit omitted.

Use the examples below as a reference point.
CN(C)c1nc(N(C)C)nc(N(C)C)n1 [Altretamine] (max concentration tested 10000 nM) = -2.99
FC(F)(F)c1ccc(/C=C/c2nc(COc3ccc(CCCCn4ccnn4)cc3)co2)cc1 [Mubritinib] (max concentration tested 1000 nM) = -7.06
O=C(O)CC1CC(c2ccccc2)=NO1 (centres undefined) [VGX-1027] (max concentration tested 10000 nM) = -7.12

As a next step, examine the compound that follows.
What measured percent inhibition of viability goes with Cn1c(=O)c(F)c(Nc2ccc(I)cc2F)c2c(=O)n(C[C@@H](O)CO)cnc21 [TAK-733] (max concentration tested 1000 nM) ?
1.65
